Cited source: paper PMC9518264

Below, each of the molecules is paired with its reported inhibition at 10 µM value.
Test system: DU-145
Assay: cells
Type: cell-based
Conditions: Homo sapiens, DU-145, read-out: growth inhibition % (GI%)
Reply with the number, then its unit.

| molecularString | inhibition at 10 µM |
| --- | --- |
| COc1ccc(Oc2ccc(C=NNC(=O)CSc3nc4ccccc4c(=O)n3-c3ccc(Cl)cc3)cc2)cc1 | 50.8% |
| O=C(CSc1nc2ccccc2c(=O)n1-c1ccccc1)NN=Cc1ccc(Oc2ccc(Cl)cc2)cc1 | 61.6% |
| O=C(CSc1nc2ccccc2c(=O)n1-c1ccc(Cl)cc1)NN=Cc1ccc(Oc2ccc(Cl)cc2)cc1 | 86.9% |
| O=C(CSc1nc2ccccc2c(=O)n1-c1ccccc1)NN=Cc1ccc(Oc2ccc(Br)cc2)cc1 | 61.7% |

Next:
Give its inhibition at 10 µM value. Item: `O=C(CSc1nc2ccccc2c(=O)n1-c1ccc(Cl)cc1)NN=Cc1ccc(N2CCCCC2)cc1`
70.9%

====

Below, each of the compounds is paired with its reported inhibition at 10 µM value.
Test system: NCI/ADR-RES
Test: cells
Type: cell-based
Conditions: Homo sapiens, read-out: growth inhibition % (GI%)
Number in %, nothing else.

# annotated cases, reported inhibition at 10 µM shown
| molecularString | parameterMeasured | readoutUnit | assayValue |
| --- | --- | --- | --- |
| COc1ccc(Oc2ccc(C=NNC(=O)CSc3nc4ccccc4c(=O)n3-c3ccc(Cl)cc3)cc2)cc1 | inhibition at 10 µM | % | 48.9 |
| O=C(CSc1nc2ccccc2c(=O)n1-c1ccc(Cl)cc1)NN=Cc1ccc(Oc2ccc(Cl)cc2)cc1 | inhibition at 10 µM | % | 84.3 |
| O=C(CSc1nc2ccccc2c(=O)n1-c1ccccc1)NN=Cc1ccc(Oc2ccc(Br)cc2)cc1 | inhibition at 10 µM | % | 44.8 |
| O=C(CSc1nc2ccccc2c(=O)n1-c1ccc(Cl)cc1)NN=Cc1ccc(N2CCCCC2)cc1 | inhibition at 10 µM | % | 60.1 |

Next:
Give its inhibition at 10 µM value. Item: `O=C(CSc1nc2ccccc2c(=O)n1-c1ccccc1)NN=Cc1ccc(Oc2ccc(Cl)cc2)cc1`
47.3

====

parameterMeasured: melting point

# annotated cases, reported melting point shown
| compound | melting point |
| --- | --- |
| O=c1c2ccccc2nc(NN=Cc2ccc(Oc3ccc(Br)cc3)cc2)n1-c1ccccc1 [3b] | 198 to 200 °C |
| O=c1c2ccccc2nc(NN=Cc2ccc(N3CCCCC3)cc2)n1-c1ccccc1 [3e] | 160 to 166 °C |
| O=c1c2ccccc2nc(NN=Cc2ccc(N3CCOCC3)cc2)n1-c1ccccc1 [3f] | 242 to 244 °C |

Give its melting point value. Item: O=c1c2ccccc2nc(NN=Cc2ccc(Oc3ccc(Cl)cc3)cc2)n1-c1ccc(Cl)cc1 [3d]
212 to 214 °C

O=C(CSc1nc2ccccc2c(=O)n1-c1ccccc1)NN=Cc1ccc(N2CCCCC2)cc1 [6g] ?
164 to 166 °C

O=c1c2ccccc2nc(NN=Cc2ccc(Oc3ccc(Cl)cc3)cc2)n1-c1ccccc1 [3a] ?
158 to 164 °C

COc1ccc(Oc2ccc(C=NNc3nc4ccccc4c(=O)n3-c3ccccc3)cc2)cc1 [3c] ?
185 to 188 °C

CN1CCN(c2ccc(C=NNc3nc4ccccc4c(=O)n3-c3ccccc3)cc2)CC1 [3g] ?
208 to 210 °C

====

Tested on: MDA-MB-435
Test: cells
Format: cell-based
Details: Homo sapiens, MDA-MB-435, read-out: growth inhibition % (GI%)
Below, each of the compounds is paired with its reported inhibition at 10 µM value.
Number in %, nothing else.

# annotated cases, reported inhibition at 10 µM shown
| compound | assayedTarget | parameterMeasured | assayValue |
| --- | --- | --- | --- |
| O=C(CSc1nc2ccccc2c(=O)n1-c1ccc(Cl)cc1)NN=Cc1ccc(Oc2ccc(Cl)cc2)cc1 [6d] | MDA-MB-435 | inhibition at 10 µM | 75 |
| O=C(CSc1nc2ccccc2c(=O)n1-c1ccccc1)NN=Cc1ccc(Oc2ccc(Br)cc2)cc1 [6b] | MDA-MB-435 | inhibition at 10 µM | 19.2 |

Next:
Report inhibition at 10 µM for O=C(CSc1nc2ccccc2c(=O)n1-c1ccccc1)NN=Cc1ccc(Oc2ccc(Cl)cc2)cc1 [6a] tested on MDA-MB-435.
15.4

====

Tested on: SN12C
Assay: cells
Type: cell-based
Settings: Homo sapiens, 10 μM, read-out: growth inhibition % (GI%)
parameterMeasured: inhibition at 10 µM

| molecularString | inhibition at 10 µM |
| --- | --- |
| O=C(CSc1nc2ccccc2c(=O)n1-c1ccccc1)NN=Cc1ccc(N2CCCCC2)cc1 | < 15% |
| COc1ccc(Oc2ccc(C=NNC(=O)CSc3nc4ccccc4c(=O)n3-c3ccccc3)cc2)cc1 | < 15% |
| O=C(CSc1nc2ccccc2c(=O)n1-c1ccc(Cl)cc1)NN=Cc1ccc(Oc2ccc(Br)cc2)cc1 | < 15% |
| CN1CCN(c2ccc(C=NNC(=O)CSc3nc4ccccc4c(=O)n3-c3ccccc3)cc2)CC1 | < 15% |
| O=C(CSc1nc2ccccc2c(=O)n1-c1ccc(Cl)cc1)NN=Cc1ccc(N2CCOCC2)cc1 | < 15% |

Give its inhibition at 10 µM value. Item: `O=C(CSc1nc2ccccc2c(=O)n1-c1ccccc1)NN=Cc1ccc(N2CCOCC2)cc1`
< 15%

`CN1CCN(c2ccc(C=NNC(=O)CSc3nc4ccccc4c(=O)n3-c3ccc(Cl)cc3)cc2)CC1` ?
< 15%

====

Tested on: HCT-15
Test: cells
Format: cell-based
Conditions: Homo sapiens, HCT-15, read-out: growth inhibition % (GI%)
parameterMeasured: inhibition at 10 µM (%)
Number in %, nothing else.

| molecularString | assayValue |
| --- | --- |
| O=C(CSc1nc2ccccc2c(=O)n1-c1ccc(Cl)cc1)NN=Cc1ccc(N2CCCCC2)cc1 | 32.2 |
| O=C(CSc1nc2ccccc2c(=O)n1-c1ccccc1)NN=Cc1ccc(Oc2ccc(Cl)cc2)cc1 | 39.2 |
| O=C(CSc1nc2ccccc2c(=O)n1-c1ccccc1)NN=Cc1ccc(Oc2ccc(Br)cc2)cc1 | 36.3 |
| O=C(CSc1nc2ccccc2c(=O)n1-c1ccc(Cl)cc1)NN=Cc1ccc(Oc2ccc(Cl)cc2)cc1 | 89.6 |

Next:
Give its inhibition at 10 µM value. Item: `COc1ccc(Oc2ccc(C=NNC(=O)CSc3nc4ccccc4c(=O)n3-c3ccc(Cl)cc3)cc2)cc1`
44

====

System: HCT-116
Experiment: cells
Assay type: cell-based
Conditions: Homo sapiens, HCT-116, read-out: growth inhibition % (GI%)
parameterMeasured: inhibition at 10 µM (%)
Number in %, nothing else.

| molecularString | assayValue |
| --- | --- |
| O=C(CSc1nc2ccccc2c(=O)n1-c1ccccc1)NN=Cc1ccc(Oc2ccc(Br)cc2)cc1 | 92.2 |
| O=C(CSc1nc2ccccc2c(=O)n1-c1ccccc1)NN=Cc1ccc(Oc2ccc(Cl)cc2)cc1 | 94.4 |
| O=C(CSc1nc2ccccc2c(=O)n1-c1ccc(Cl)cc1)NN=Cc1ccc(N2CCCCC2)cc1 | 63.1 |

Give its inhibition at 10 µM value. Item: `COc1ccc(Oc2ccc(C=NNC(=O)CSc3nc4ccccc4c(=O)n3-c3ccc(Cl)cc3)cc2)cc1`
86.7

====

Tested on: ACHN
Assay: cells
Assay type: cell-based
Conditions: Homo sapiens, read-out: growth inhibition % (GI%)
parameterMeasured: inhibition at 10 µM (%)
Number in %, nothing else.

# annotated cases, reported inhibition at 10 µM shown
| molecularString | assayValue |
| --- | --- |
| COc1ccc(Oc2ccc(C=NNC(=O)CSc3nc4ccccc4c(=O)n3-c3ccc(Cl)cc3)cc2)cc1 | 92.2 |
| O=C(CSc1nc2ccccc2c(=O)n1-c1ccc(Cl)cc1)NN=Cc1ccc(Oc2ccc(Cl)cc2)cc1 | 36.5 |
| O=C(CSc1nc2ccccc2c(=O)n1-c1ccccc1)NN=Cc1ccc(Oc2ccc(Cl)cc2)cc1 | 25.5 |

Next:
Report inhibition at 10 µM for `O=C(CSc1nc2ccccc2c(=O)n1-c1ccc(Cl)cc1)NN=Cc1ccc(N2CCCCC2)cc1` tested on ACHN.
82.6

====

Below, each of the compounds is paired with its reported inhibition at 10 µM value.
Tested on: HCC-2998
Test: cells
Type: cell-based
Details: Homo sapiens, HCC 2998, read-out: growth inhibition % (GI%)
Number in %, nothing else.

| molecularString | assayedTarget | parameterMeasured | assayValue |
| --- | --- | --- | --- |
| O=C(CSc1nc2ccccc2c(=O)n1-c1ccc(Cl)cc1)NN=Cc1ccc(Oc2ccc(Cl)cc2)cc1 | HCC-2998 | inhibition at 10 µM | 79.7 |

Next:
Report inhibition at 10 µM for `COc1ccc(Oc2ccc(C=NNC(=O)CSc3nc4ccccc4c(=O)n3-c3ccc(Cl)cc3)cc2)cc1` tested on HCC-2998.
16.6
